Listing of recorded log10 of MIC by entry.
tested on: Escherichia coli (Ec); assay: Minimal inhibitory concentration against multi-drug resistant bacteria; assay type: cell-based; conditions: NA: No Activity
Would you kindly interpret these values as log10 of MIC expressed in µg/mL?

As a guide, the following entries are already answered.
[
  {
    "COMPOUND": "COc1ccc(Nc2n[nH]c(/N=C/c3ccc(C)cc3)c2C(=O)Nc2ccc(C)cc2)cc1",
    "ASSAY SYSTEM": "Escherichia coli (Ec)",
    "RECORDED MEASUREMENT": 1.80
  },
  {
    "COMPOUND": "COc1ccc(Nc2n[nH]c(/N=C/c3ccc(F)cc3)c2C(=O)Nc2ccccc2)cc1",
    "ASSAY SYSTEM": "Escherichia coli (Ec)",
    "RECORDED MEASUREMENT": 1.49
  },
  {
    "COMPOUND": "O=C(O)c1cn(C2CC2)c2cc(N3CCNCC3)c(F)cc2c1=O [Ciprofloxacin, reference compound]",
    "ASSAY SYSTEM": "Escherichia coli (Ec)",
    "RECORDED MEASUREMENT": 0.89
  },
  {
    "COMPOUND": "COc1ccc(Nc2n[nH]c(/N=C/c3ccccc3)c2C(=O)Nc2ccc(C)cc2)cc1",
    "ASSAY SYSTEM": "Escherichia coli (Ec)",
    "RECORDED MEASUREMENT": 2.40
  },
  {
    "COMPOUND": "COc1ccc(Nc2n[nH]c(/N=C/c3ccc(Cl)cc3)c2C(=O)Nc2ccccc2)cc1",
    "ASSAY SYSTEM": "Escherichia coli (Ec)",
    "RECORDED MEASUREMENT": 2.10
  },
  {
    "COMPOUND": "COc1ccc(Nc2n[nH]c(/N=C/c3ccc(Cl)cc3)c2C(=O)Nc2ccc(Cl)cc2)cc1",
    "ASSAY SYSTEM": "Escherichia coli (Ec)",
    "RECORDED MEASUREMENT": 2.10
  }
]

Now look at this entry.
Param item = "COc1ccc(Nc2n[nH]c(/N=C/c3ccc(C)cc3)c2C(=O)Nc2ccccc2)cc1" ; retrieve measured log10 of MIC.
2.10
